Hi there, I'd appreciate the recorded yeast fitness for every entry that follows.
B1: tRNA (parent)
chain: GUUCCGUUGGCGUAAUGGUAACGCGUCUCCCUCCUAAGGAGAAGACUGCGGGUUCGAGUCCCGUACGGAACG

- Variants of: B1
- Experiment description: yeast fitness relative to wild type (ratio to wild type); higher = fitter; tRNA-Arg(CCU), competitive growth, 37 C, YPD
Fewer inactive variants are shown than the library holds.

What measured yeast fitness goes with U26C C29A G67C ?
≤ 0.5

What measured yeast fitness goes with C4G C5U C49A ?
≤ 0.5

What measured yeast fitness goes with A14G A21C A36C A43U G67U ?
≤ 0.5

What measured yeast fitness goes with U7C A15G G17A A65C A70G ?
≤ 0.5

What measured yeast fitness goes with C24U C33U C34G A40U ?
≤ 0.5

What measured yeast fitness goes with C11U C27A G56C C62A A65C ?
≤ 0.5
